The next entries give measured pKd for Mitogen-activated protein kinase kinase kinase 9 (Homo sapiens, UniProt P80192).
pKd: −log10 of the molar value.
assay_readout: pKd

1. NC(=O)c1ccc(-c2nc(-c3ccc4c(c3)OCO4)c(-c3ccccn3)[nH]2)cc1 [SB-431542]; < 5.00
2. Oc1ccc(-c2nc(-c3ccncc3)c(-c3ccc(F)cc3)[nH]2)cc1 [SB-202190]; < 5.00
3. Nc1nc(Nc2ccc(S(N)(=O)=O)cc2)nn1C(=O)c1c(F)cccc1F [JNJ-7706621]; 5.44
4. COCC(=O)NC/C=C/c1ccc2ncnc(Nc3ccc(Oc4ccc(C)nc4)c(C)c3)c2c1 [CP-724714]; < 5.00
5. CCOc1cc2ncc(C#N)c(Nc3ccc(F)c(Cl)c3)c2cc1NC(=O)/C=C/CN(C)C [PELITINIB]; < 5.00
